For each record, write down the corresponding intracellular M.tb growth inhibition.
# Test system: THP-1 macrophages infected with Mycobacterium tuberculosis H37Rv
# method-summary: intracellular M.tb growth inhibition relative to DMSO (0) and 4 uM bedaquiline (100); higher = stronger inhibition of intracellular bacterial growth
# assay-context: 10 µM; 4 days

Ask: Entry under review: CCc1nc(-c2cccc(C)c2)c(-c2ccnc(NC(=O)c3ccccc3)c2)s1 . Reported intracellular M.tb growth inhibition?
Reply: 0.0588%

Ask: Entry under review: COc1cc(CCc2cc(NC(=O)c3ccc(N4CC(C)NC(C)C4)cc3)n[nH]2)cc(OC)c1 (centres undefined) . Reported intracellular M.tb growth inhibition?
Reply: -216%

Ask: Entry under review: NCC(=O)Nc1ccc(-n2nc(C(F)(F)F)cc2-c2ccc3c(ccc4ccccc43)c2)cc1 . Reported intracellular M.tb growth inhibition?
Reply: 92.3%

Ask: Entry under review: CCCS(=O)(=O)Nc1ccc(F)c(C(=O)c2c[nH]c3ncc(Cl)cc23)c1F . Reported intracellular M.tb growth inhibition?
Reply: 30.7%

Ask: Entry under review: N#C/C(=C\c1ccc(O)c(O)c1)C(=O)Nc1ccccc1 . Reported intracellular M.tb growth inhibition?
Reply: -35.4%

Ask: Entry under review: CCN1/C(=C/C(C)=O)Sc2ccc(OC)cc21 . Reported intracellular M.tb growth inhibition?
Reply: -98.4%

Ask: Entry under review: OCCC#Cc1nc(-c2ccc(F)cc2)c(-c2ccncc2)n1CCCc1ccccc1 . Reported intracellular M.tb growth inhibition?
Reply: 14.2%

Ask: Entry under review: Cn1cnc2c(NCc3ccccc3)nc(NCCO)nc21 [Olomoucine] . Reported intracellular M.tb growth inhibition?
Reply: -10.5%

Ask: Entry under review: Cc1ccc(F)c(NC(=O)Nc2ccc(-c3cccc4[nH]nc(N)c34)cc2)c1 . Reported intracellular M.tb growth inhibition?
Reply: -14.6%

Ask: Entry under review: CC(C)(C)n1nc(-c2cccc3ccccc23)c2c(N)ncnc21 [1-Naphthyl PP1] . Reported intracellular M.tb growth inhibition?
Reply: 21.2%

Ask: Entry under review: Nc1cccc(-c2cc3c(Oc4cccc(O)c4)ncnc3[nH]2)c1 . Reported intracellular M.tb growth inhibition?
Reply: -14.2%

Ask: Entry under review: CC(C)(C)c1nc2c3cc[nH]c(=O)c3c3cc(F)ccc3c2[nH]1 [Merck-5] . Reported intracellular M.tb growth inhibition?
Reply: -268%

Ask: Entry under review: Cc1cc2c(F)c(Oc3ncnn4cc(OC[C@@H](C)O)c(C)c34)ccc2[nH]1 [Brivanib] . Reported intracellular M.tb growth inhibition?
Reply: -66.6%

Ask: Entry under review: CC(C)c1cc(/C=C(\C#N)C(=O)NCCCc2ccccc2)cc(C(C)C)c1O [Tyrphostin SU 1498] . Reported intracellular M.tb growth inhibition?
Reply: 50.3%

Ask: Entry under review: O=C1c2ccc(O)c(O)c2C(=O)c2c(O)ccc(O)c21 [Quinalizarin] . Reported intracellular M.tb growth inhibition?
Reply: -115%

Ask: Entry under review: CC(=O)c1c(C)c2cnc(Nc3ccc(N4CCNCC4)cn3)nc2n(C2CCCC2)c1=O . Reported intracellular M.tb growth inhibition?
Reply: -126%

Ask: Entry under review: Cn1cc(C2=C(c3ccc(Cl)cc3Cl)C(=O)NC2=O)c2ccccc21 . Reported intracellular M.tb growth inhibition?
Reply: -108%

Ask: Entry under review: CO[C@H]1C[C@@H]2CC[C@@H](C)[C@@](O)(O2)C(=O)C(=O)N2CCCC[C@H]2C(=O)O[C@H]([C@H](C)C[C@@H]2CC[C@@H](OCCO)[C@H](OC)C2)CC(=O)[C@H](C)/C=C(\C)[C@@H](O)[C@@H](OC)C(=O)[C@H](C)C[C@H](C)/C=C/C=C/C=C/1C [Everolimus] . Reported intracellular M.tb growth inhibition?
Reply: 3.03%

Ask: Entry under review: COc1cc2nccc(Oc3ccc(NC(=O)NC4CC4)c(Cl)c3)c2cc1C(N)=O . Reported intracellular M.tb growth inhibition?
Reply: -42.3%
